Every entry's value here was drawn from patent US7816406B2.

- target_desc: c-Myc template DNA
- method_summary: Quadruplex binding assay (STOP / Taq polymerase arrest, capillary electrophoresis)
- settings: concentration at which 50% of the DNA was arrested (arrested:full-length 1:1)
- Description: Generally, a 5′-fluorescent-labeled (FAM) primer (P45, 15 nM) was mixed with template DNA (15 nM) in a Tris-HCL buffer (15 mM Tris, pH 7.5) containing 10 mM MgCl2, 0.1 mM EDTA and 0.1 mM mixed deoxynucleotide triphosphates (dNTP's). […] After cooling down to room temperature, 1 mM KCl2 and the test compound (various concentrations) were added and the mixture incubated for 15 minutes at room temperature. […] The products were separated and analyzed using capillary electrophoresis. […]
quantity: pIC50
# pIC50 = -log10(concentration in molar units)

The cases that follow already have their pIC50 on record.
| molecule | pIC50 |
| --- | --- |
| CC(C)N1CCN(c2cc3c(cc2F)c(=O)c(C(=O)NCCC2CCCN2C)c2n(C)c4ccccc4n32)CC1 (stereo not shown) | 4.82 |
| CN1CCCC1CCNC(=O)c1c(=O)c2cc(F)c(SCCc3cnccn3)cc2n2c1sc1cc(Cl)ccc12 (stereo not shown) | 5.77 |
| O=C(NCCN1CCCC1)c1c(=O)c2cc(F)c(SCCc3cnccn3)cc2n2c1sc1ccccc12 [drawing 15] | 5.24 |
| Cn1c2ccccc2n2c3cc(N4CCC(c5cnccn5)C4)c(F)cc3c(=O)c(C(=O)NCCN3CCCC3)c12 (stereo not shown) | 5.09 |
| CN1CCCC1CCNC(=O)c1c(=O)c2cc(F)c(N3CCC(c4cnccn4)C3)cc2n2c1sc1ccccc12 (stereo not shown) | 5.89 |

Endpoint output: pIC50 of CN1CCCC1CCNC(=O)c1c(=O)c2cc(F)c(SCCc3cnccn3)cc2n2c3ccccc3n(C)c12 (stereo not shown) . Value?
4.82

Record: CC(C)N1CCN(c2cc3c(cc2F)c(=O)c(C(=O)NCCN2CCCC2)c2sc4ccccc4n23)CC1
5.05

Record: Cn1c2ccccc2n2c3cc(SCCc4cnccn4)c(F)cc3c(=O)c(C(=O)NCCN3CCCC3)c12
4.82

----------
Attribute: IC50
- Test system: HCT-116
- method_summary: MTS cell proliferation assay, HCT-116
- Assay type: cell-based
- settings: Homo sapiens, HCT-116, HCT-116, Table 1A; read-out: HCT-116 MTs
Use nM as the unit, but write only the number.

| compound | target_desc | IC50, nM |
| --- | --- | --- |
| CN1CCCC1CCNC(=O)c1c(=O)c2cc(F)c(N3CCC(c4cnccn4)C3)cc2n2c3ccccc3n(C)c12 (centres unmarked) | HCT-116 | 700 |

Endpoint output: IC50 of CC(C)N1CCN(c2cc3c(cc2F)c(=O)c(C(=O)NCCC2CCCN2C)c2n(C)c4ccccc4n32)CC1 (centres unmarked) . Value?
300

Record: COc1ccc2c(c1)sc1c(C(=O)NCCC3CCCN3C)c(=O)c3cc(F)c(SCCc4cnccn4)cc3n12 (centres unmarked)
5700

Record: Cn1c2ccccc2n2c3cc(SCCc4cnccn4)c(F)cc3c(=O)c(C(=O)NCCN3CCCC3)c12
300

Record: CN1CCCC1CCNC(=O)c1c(=O)c2cc(F)c(SCCc3cnccn3)cc2n2c1sc1ccccc12 (centres unmarked) [drawing 14]
1100

Record: CN1CCCC1CCNC(=O)c1c(=O)c2cc(F)c(SCCc3cnccn3)cc2n2c1sc1cc(Cl)ccc12 (centres unmarked)
3570

Record: Cn1c2ccccc2n2c3cc(N4CCC(c5cnccn5)C4)c(F)cc3c(=O)c(C(=O)NCCN3CCCC3)c12 (centres unmarked)
100

Record: CN1CCCC1CCNC(=O)c1c(=O)c2cc(F)c(N3CCC(c4cnccn4)C3)cc2n2c1sc1ccccc12 (centres unmarked)
3400

----------
- Tested on: HCT-116
- method_summary: MTS cell proliferation assay, HCT-116
- Type: cell-based
- settings: M CELL HCT-116, Table 1C; read-out: M DATA
quantity: IC50
# answer = value followed by unit

Endpoint output: IC50 of O=C(NCCN1CCCC1)c1c(=O)c2cnc(N3CCCC3)nc2n2c1sc1ccc(Cl)cc12 [drawing 212] . Value?
210 nM

----------
- target_desc: c-Myc template DNA
- method_summary: Quadruplex binding assay (STOP / Taq polymerase arrest, capillary electrophoresis)
- settings: concentration at which 50% of the DNA was arrested (arrested:full-length 1:1)
- Experimental: Generally, a 5′-fluorescent-labeled (FAM) primer (P45, 15 nM) was mixed with template DNA (15 nM) in a Tris-HCL buffer (15 mM Tris, pH 7.5) containing 10 mM MgCl2, 0.1 mM EDTA and 0.1 mM mixed deoxynucleotide triphosphates (dNTP's). […] After cooling down to room temperature, 1 mM KCl2 and the test compound (various concentrations) were added and the mixture incubated for 15 minutes at room temperature. […] The products were separated and analyzed using capillary electrophoresis. […]
Attribute: pIC50
# pIC50 = -log10(concentration in molar units)

The cases that follow already have their pIC50 on record.
| compound | target_desc | assay_value |
| --- | --- | --- |
| Nc1ccccc1Sc1c(F)cc2c(=O)c(C(=O)NCCN3CCCC3)c3sc4ccccc4n3c2c1F | c-Myc template DNA | 4.82 |
| Cn1c2ccccc2n2c3cc(F)c(F)cc3c(=O)c(C(=O)NCCN3CCCC3)c12 | c-Myc template DNA | 4.82 |

Consider the additional compound presented here.
Give recorded pIC50 with c-Myc template DNA for the following compound: CN1CCCC1CCNC(=O)c1c(=O)c2cc(F)c(N3CCC(c4cnccn4)C3)cc2n2c3ccccc3n(C)c12 (stereo not shown)
4.98

----------
- target_desc: c-Myc template DNA
- method_summary: Quadruplex binding assay (STOP / Taq polymerase arrest, capillary electrophoresis)
- settings: concentration at which 50% of the DNA was arrested (arrested:full-length 1:1)
quantity: IC50 (µM)
Use µM as the unit, but write only the number.

Give recorded IC50 with c-Myc template DNA for the following molecule: CN1CCCC1CCNC(=O)c1c(=O)c2cc(SCCc3cnccn3)ccc2n2c1sc1ccccc12 (centres unmarked)
10

Record: CN1CCCC1CCNC(=O)c1c(=O)c2cc(F)c(SCCc3cnccn3)cc2n2c1sc1ccccc12 (centres unmarked) [drawing 14]
7.2

Record: COc1ccc2c(c1)sc1c(C(=O)NCCC3CCCN3C)c(=O)c3cc(F)c(SCCc4cnccn4)cc3n12 (centres unmarked)
9.3

Record: O=C(NCCN1CCCC1)c1c(=O)c2cc(F)c(N3CCC(c4cnccn4)C3)c(F)c2n2c1sc1ccccc12 (centres unmarked)
11.6
